# measurementDescription: Compound cytotoxicity, XTT-based colorimetric assay
# Type: cell-based
# runConditions: human, uninfected MT2 cells, day 4, XTT
quantity: CC50 at 4 days

See these solved cases before continuing.
[[record]]
compound = "COc1ccc(N(C)C(=O)[C@H](Cc2ccccc2)NC(=O)NS(=O)(=O)N(C)Cc2n[nH]c(=O)[nH]2)cc1 [JB-69]"
result = "> 100 µM"

[[record]]
compound = "COc1ccc(N(C)C(=O)[C@H](Cc2ccccc2)NC(=O)NS(=O)(=O)Nc2ccccc2-c2ccccc2)cc1 [CA-31]"
result = "> 33.3 µM"

[[record]]
compound = "Cc1nc2cc(N(C)C(=O)[C@H](Cc3cc(F)cc(F)c3)NC(=O)NS(=O)(=O)N3CCc4cccnc43)ccc2s1 [ZY-23]"
result = "> 100 µM"

[[record]]
compound = "CN(C(=O)[C@H](Cc1cc(F)cc(F)c1)NC(=O)NS(=O)(=O)N1CCc2cccnc21)c1ccc(OC(F)F)cc1 [BB-35]"
result = "97.2 µM"

[[record]]
compound = "COc1ccc(N(C)C(=O)[C@H](Cc2ccccc2)NC(=O)NS(=O)(=O)Nc2nccc3ccccc23)cc1 [JB-32]"
result = "> 100 µM"


Below is a list of compounds. For each, state its recorded CC50 at 4 days.
1. COc1ccc(N(C)C(=O)[C@H](Cc2ccccc2)NC(=O)NS(=O)(=O)N2Cc3ccncc3C2)cc1 [JB-44]
2. COc1ccc(N(C)C(=O)[C@H](Cc2ccccc2)NC(=O)NS(=O)(=O)Nc2ccccc2OC(F)(F)F)cc1 [CA-26]
3. CCc1ccc(N(C)C(=O)[C@H](Cc2cc(F)cc(F)c2)NC(=O)NS(=O)(=O)N2CCc3cccnc32)cc1 [BB-2]
4. CN(C(=O)[C@H](Cc1cc(F)cc(F)c1)NC(=O)NS(=O)(=O)N1CCc2cccc(F)c21)c1ccc2scnc2c1 [ZY-15]
5. CN(C(=O)[C@H](Cc1cc(F)cc(F)c1)NC(=O)NS(=O)(=O)N1CCCC1=O)c1ccc2scnc2c1 [BB-33]
6. COc1ccc(N(C)C(=O)[C@H](Cc2ccccc2)NC(=O)NS(=O)(=O)NCc2ccccn2)cc1 [JB-39]

Result:
1. > 100 µM
2. > 100 µM
3. 96 µM
4. > 33.3 µM
5. > 100 µM
6. > 100 µM

Below is a list of compounds. For each, state its recorded CC50 at 4 days.
1. COc1ccc(N(C)C(=O)[C@H](Cc2ccccc2)NC(=O)NS(=O)(=O)N(C)c2ccc(OC)cc2)cc1 [JB-28]
2. COc1ccc(N(C(=O)[C@H](Cc2cc(F)cc(F)c2)NC(=O)NS(=O)(=O)N2CCc3cccnc32)C2CC2)cc1 [BB-32]
3. CCN(CC)S(=O)(=O)NC(=O)N[C@@H](Cc1cc(F)cc(F)c1)C(=O)N(C)c1ccc(OC(F)F)cc1 [BB-36]
4. COc1ccc(N(C)C(=O)[C@H](Cc2ccccc2)NC(=O)NS(=O)(=O)n2c(C)cc3cc(F)c(O)cc32)cc1 [CA-65]
5. CN(C(=O)[C@H](Cc1cc(F)cc(F)c1)NC(=O)NS(=O)(=O)Nc1ccccn1)c1ccc2scnc2c1 [CA-114]

Result:
> 100 µM
62.6 µM
> 100 µM
> 100 µM
> 100 µM
